Experiment: Beagle PK (pharmacokinetics)
Format: in vivo, beagle dogs
Conditions: whole blood; Beagle dog, PO 3 mg/kg, 4 hr; read-out: Blood drug concentration
Experimental: In this assay, the pharmacokinetic characteristics and ability to penetrate the blood-brain barrier of the compounds of the present application were assayed after administration of some of the compounds of the present application to SD rats, CD-1 mice or beagle dogs by single oral administration and intravenous injection. 1. […] Pharmacokinetic parameters were calculated using WinNonlin software. […]
Measurement type: concentration at 4 h (ng/mL)

[A] CC(C)(O)COc1ccc(F)c(-c2ccnc(N3CCC(C(=O)N4N=CC[C@H]4c4cc(F)cc(F)c4)CC3)c2)c1 (racemic)
[B] O=C(C1CCN(c2cc(-c3cc(OCCCO)ccc3F)ccn2)CC1)N1N=CCC1c1cc(F)cc(F)c1 (racemic)
[ask] Hey, which is lower on measured concentration at 4 h, A or B ? Mark your answer with the label of the selected entry.
[reply] B
(B: 138 ng/mL, A: 560 ng/mL)
